# system.tested: human CB2 receptor (Homo sapiens)
# Construct: expressed in transfected cells; host or cells: human embryonic kidney (HEK) cells, Semliki Forest Virus system, membrane preparations
# Sequence (P34972 whole entry): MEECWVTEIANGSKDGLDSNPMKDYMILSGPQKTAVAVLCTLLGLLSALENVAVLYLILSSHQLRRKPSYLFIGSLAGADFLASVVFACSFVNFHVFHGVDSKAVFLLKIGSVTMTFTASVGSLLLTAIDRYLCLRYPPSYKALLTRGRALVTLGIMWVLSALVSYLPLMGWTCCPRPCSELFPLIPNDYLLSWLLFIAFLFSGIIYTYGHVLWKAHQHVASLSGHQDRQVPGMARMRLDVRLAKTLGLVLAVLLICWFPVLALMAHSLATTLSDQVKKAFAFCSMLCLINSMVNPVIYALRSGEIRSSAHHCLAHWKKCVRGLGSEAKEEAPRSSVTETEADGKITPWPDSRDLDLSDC
# assay.name: CB2 receptor affinity, [3H]-CP-55,940 displacement, HEK cell membranes
# Type: binding
# study.conditions: 10 μM compound, radioligand [3H]-CP-55,940
measured.quantity: inhibition at 10 µM
// return the numeric value with its unit appended

Here's what some known entries look like.
CC(C)c1noc(CNC(=O)c2cc(-c3ccc(Cl)cc3)c(OCC(F)(F)F)cn2)n1 [Example 40]; 19%
CC(C)c1nc(CNC(=O)c2cc(-c3ccc(Cl)cc3)c(OCC(F)(F)F)cn2)no1 [Example 39]; 21%
O=C(NCc1cc(C(F)(F)F)no1)c1ncc(OCC2CC2)c(-c2ccc(Cl)cc2)n1 [Example 62]; 24%

Field inhibition at 10 µM (entry CC(C)c1cc(CNC(=O)c2ccc(OCC(F)(F)F)c(-c3ccc(Cl)cc3)n2)no1 [Example 53] ) reads 23%

* * *

# system.tested: human CB2 receptor (Homo sapiens)
# Construct: expressed in transfected cells; host or cells: human embryonic kidney (HEK) cells, Semliki Forest Virus system, membrane preparations
# assay.name: CB2 receptor affinity, [3H]-CP-55,940 displacement, HEK cell membranes
# Type: binding
# study.conditions: 10 μM compound, radioligand [3H]-CP-55,940
# Procedure: The affinity of the compounds of the invention for cannabinoid CB2 receptors was determined using membrane preparations of human embryonic kidney (HEK) cells in which the human CB2 receptor is transiently transfected using a Semliki Forest Virus system in conjunction with [^3H]-CP-55,940 as radioligand. […] Radioactivity on the filter was measured by scintillation counting. […]
Listing: inhibition at 10 µM of selected compounds
Note: unit % is implicit; provide only the numeric part.

Here's what some known entries look like.
C[C@H](Oc1ncc(C(=O)NCc2nc(C(F)(F)F)no2)nc1-c1ccc(Cl)cc1)C(F)(F)F [Example 36]; 14
COc1cc(CNC(=O)c2cc(-c3ccc(C)c(Cl)c3)c(OCC(F)(F)F)cn2)on1 [Example 73]; 45
O=C(NCc1coc(C2CC2)n1)c1cc(-c2ccc(Cl)cc2)c(OCC(F)(F)F)cn1 [Example 70]; 14
CC(C)c1nc(CNC(=O)c2cnc(OCC3CC3)c(-c3ccc(Cl)cc3)c2)no1 [Example 51]; 2
CC(C)(C)c1nc(CNC(=O)c2ccc(OCC3CC3)c(-c3ccc(Cl)cc3)n2)cs1 [Example 63]; 38
O=C(NCc1cc(C(F)(F)F)on1)c1cnc(OCC2CC2)c(-c2ccc(Cl)cc2)c1 [Example 66]; 18
O=C(NCc1cc(C2CC2)no1)c1ccc(OCC(F)(F)F)c(-c2ccc(Cl)cc2)n1 [Example 47]; 16
O=C(NCc1noc(C2CC2)n1)c1cc(-c2ccc(Cl)cc2)c(OCC(F)(F)F)nn1 [Example 41]; 19

Field inhibition at 10 µM (entry COc1cc(CNC(=O)c2cnc(O[C@@H](C)C(F)(F)F)c(-c3ccc(Cl)cc3)c2)on1 [Example 34] ) reads 14

Field inhibition at 10 µM (entry O=C(NCc1cc(C(F)(F)F)on1)c1cc(-c2ccc(Cl)cc2)c(OCC(F)(F)F)cn1 [Example 45] ) reads -2

Field inhibition at 10 µM (entry O=C(NCc1nc(C(F)(F)F)no1)c1cnc(OCC(F)(F)F)c(-c2ccc3nonc3c2)c1 [Example 100] ) reads 8

Field inhibition at 10 µM (entry O=C(NCc1coc(C2CC2)n1)c1ccc(OCC2CC2)c(-c2ccc(Cl)cc2)n1 [Example 56] ) reads 32

Field inhibition at 10 µM (entry CC(C)c1cc(CNC(=O)c2ncc(OCC(F)(F)F)c(-c3ccc(Cl)cc3)n2)on1 [Example 44] ) reads 8

Field inhibition at 10 µM (entry O=C(NCc1nc(C(F)(F)F)no1)c1cc(-c2ccc(Cl)cc2)c(OCC(F)(F)F)nn1 [Example 46] ) reads 0
